Data origin, for the record: the supplement of paper PMC8728848

- test system: Man(a1-2)Man(a1-3)[Man(a1-6)]Man(a1-6)[Man(a1-2)Man(a1-3)]Man(b1-4)GlcNAc(b1-4)GlcNAc
- assay explanation: glycan array binding signal (z-score within array); higher = stronger binding
- settings: glycan notation: IUPAC condensed, linker removed
The entries come from a sample that favours the strongest signals as a whole.
Mark criterion met for reported glycan array binding signal (z-score) of -0.2 or greater; mark criterion not met for anything smaller.

binder="AMA (Arum maculatun) (protein) MAKLLLLLLLPAIVGLAVPRSAAAVGSNYMLSGETLNTDGRLTNGELTLIMQVDCNLVLYHGGWQSNTANNGRDCKLTLTDFGELVIKSGTGSTVWSSGSKQSMKGNYAAVVHPEGRLVIYGPSVFKINPSGAGLNGLPLRNIPLTNNMLFSGQVLYGDGTLSARNHKLVMQGDCNMVLYGGKYGWQSNTHGNGKYCFAMLTHKGELVIRDDDFKSVWSSKSSSKQGDYVFILQDDSLAIIYGPAVFSTGSKKMISMVTN" label_value="criterion met"
binder="MLTim-4 (Mus musculus), Q6U7R4 (protein) MSKGLLLLWLVTELWWLYLTPAASEDTIIGFLGQPVTLPCHYLSWSQSRNSMCWGKGSCPNSKCNAELLRTDGTRIISRKSTKYTLLGKVQFGEVSLTISNTNRGDSGVYCCRIEVPGWFNDVKKNVRLELRRAT" label_value="criterion met"
binder="SLLPI (Mus musculus), Q9D9X8 (protein) MGICMSMYTQVLVPVDADGDHHILWSRFYERWGSCFNPCAGLVNCLPPHSSALYLCHRMEARSRAPRRQLCPPGITWLALAYLLSCLLASSKAKVFSRCELAKEMHDFGLDGYRGYNLADWVCLAYYTSGFNTNAVDHEADGSTNNGIFQISSRRWCRTLASNGPNLCRIYCTDLLNNDLKDSIVCAMKIVQEPLGLGYWEAWRHHCQGRDLSDWVDGCDF" label_value="criterion met"
binder="FBG5 (Homo sapiens), Q8NI29 (protein) MGASVSRGRAARVPAPEPEPEEALDLSQLPPELLLVVLSHVPPRTLLGRCRQVCRGWRALVDGQALWLLILARDHGATGRALLHLARSCQSPARNARPCPLGRFCARRPIGRNLIRNPCGQEGLRKWMVQHGGDGWVVEENRTTVPGAPSQTCFVTSFSWCCKKQVLDLEEEGLWPELLDSGRIEICVSDWWGARHDSGCMYRLLVQLLDANQTVLDKFSAVPDPIPQWNNNACLHVTHVFSNIKMGVRFVSFEHRGQDTQFWAGHYGARVTNSSVIVRVRLS" label_value="criterion met"
binder="Gal 3C (Homo sapiens), P17931 (protein) YGAPAGPLIVPYNLPLPGGVVPRMLITILGTVKPNANRIALDFQRGNDVAFHFNPRFNENNRRVIVCNTKLDNNWGREERQSVFPFESGKPFKIQVLVEPDHFKVAVNDAHLLQYNHRVKKLNEISKLGISGDIDLTSASYTMI" label_value="criterion not met"
binder="MVL (Microcystis viridis), Q9RHG4 (protein) MASYKVNIPAGPLWSNAEAQQVGPKIAAAHQGNFTGQWTTVVESAMSVVEVELQVENTGIHEFKTDVLAGPLWSNDEAQKLGPQIAASYGAEFTGQWRTIVEGVMSVIQIKYTF" label_value="criterion met"
binder="MPA (Maclura pomifera) (protein) GVTFDDGAYTGIREINFEYNSETAIGGLRVTYDLNGMPFVAEDHKSFITGFKPVKISLEFPSEYIVEVSGYVGKVEGYTVIRSLTFKTNKQTYGPYGVTNGTPFSLPIENGLIVGFKGSIGYWLDYFSIYLSLNGPNGKSQSIIVGPWGDRVTN" label_value="criterion not met"
binder="rMpL (Macrolepiota procera) (protein) MSTQVSSGRTYKITNVIAGTVIDLSGEDNKSIIGYPYHSGKNQQWTFNWTGKAWTLRSASSGSYLGIEGTPAGGTRLVAVNDPFEWHIWRDEANENAFRIFVPFTNYNLDLSGYGDTTPGTPVQLWWTWEGLHQTWTIDRP" label_value="criterion not met"
binder="Tachylectin-2 (Tachypleus tridentatus), TAL2_TACTR (protein) VGGESMLRGVYQDKFYQGTYPQNKNDNWLARATLIGKGGWSNFKFLFLSPGGELYGVLNDKIYKGTPPTHDNDNWMGRAKKIGNGGWNQFQFLFFDPNGYLYAVSKDKLYKASPPQSDTDNWIARATEIGSGGWSGFKFLFFHPNGYLYAVHGQQFYKALPPVSNQDNWLARATKIGQGGWDTFKFLFFSSVGTLFGVQGGKFYEDYPPSYAHDNWLARAKLIGNGGWDDFRFLFF" label_value="criterion met"
binder="DrGal3 (Danio rerio) (protein) MDLSDALDAPPQQNNQQAGGPVWPGQPANPVWPGQPANPTWPGQPNQPAWPGQPNQQWPGQPGQPTAPGWPGPAPQTGPYGAPGQAPQVLTVPLDFPLQNGAYNKMLITINGEVKPNAKQFTVNLRRGNDIAFHINPRFSEGGKPVIVRNSMIGNNWGREERELPSFPFVPGKPFEMKILITDTEYKVAVNKSHLLEFKHRVFELNQITGLSIYNDVTLSTVNVETLQ" label_value="criterion not met"
